The values you see were collected from PubChem BioAssay (NCI).

test-details: NCI Yeast Anticancer Drug Screen. Data for the mlh1 strain (AID 171);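 further: 0% = growth of vehicle-treated control cultures of the same strain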
condition: S. cerevisiae mlh1 strain growth inhibition; at 3.7 µM; hits give high values
Compounds without any hit were thinned out: in the full panel of roughly 79,000, 15% have a hit.

| compound | growth inhibition, % |
| --- | --- |
| CC1=C[C@H]2O[C@@H]3C[C@H]4OC(=O)/C=C\C=C\C(C(C)O)OCC(O)C(C)CC(=O)OC[C@@]2(C[C@@H]1O)[C@]4(C)[C@@]31CO1 (some centres not stated) | 3 |
| CC1=C(CO)C2=C(C)C3(CC3)[C@@](C)(O)C(=O)C2=C1 | 0 |
| Cc1cc[n+](C2=C(Nc3cccc(C(F)(F)F)c3)C(=O)c3ccccc3C2=O)cc1 | -2 |
| Cn1cc(NC(=O)c2cc(NC(=O)CN=C(N)N)cn2C)cc1C(=O)NCCC(=N)N | -16 |
| O=C(O)CCCOc1cc(Cl)c(Cl)cc1Cl | -27 |
| Nc1nc(N)c2c(Cl)c(CNc3ccc(C(=O)NC(CC(=O)O)C(=O)O)cc3)ccc2n1 (configuration not stated) | 12 |
| CC[C@@]1(O)C(=O)OCc2c1cc1n(c2=O)Cc2cc3c(NC(=O)CN)cccc3nc2-1 | -3 |
| BrCC[N+]12CC[N+](CCBr)(CC1)C2 | -2 |
| COc1ccc(OC)c(/C=C/[N+](=O)[O-])c1 | -2 |
| O=P(Oc1ccc(Cl)cc1)(Oc1ccc(Cl)cc1)N1CC1 | -3 |
| CCC1(O)C(=O)OCc2c1cc1n(c2=O)Cc2cc3ccccc3nc2-1 (configuration not stated) | 13 |
| C=C[C@H]1CN2CC[C@H]1C[C@@H]2[C@@H](O)c1ccnc2ccccc12 | 1 |
| O=C1c2ccccc2C(=O)C(Cl)C1Cl (configuration not stated) | 4 |
| O=C(O)C1C2c3ccccc3C(c3ccccc32)C1C(=O)O (configuration not stated) | -4 |
| Oc1c(Br)cc(Br)cc1Br | -19 |
| Oc1ccc2nc3ccccc3nc2c1 | -2 |
| CCNCC(=O)O[C@]1(CC)C(=O)OCc2c1cc1n(c2=O)Cc2cc3ccccc3nc2-1 | 6 |
| Cc1ccc2c(c1)C1(C)c3cc(C)ccc3SP1S2 (configuration not stated) | -22 |
| O=c1oc2ccccc2c(O)c1C(c1ccc2ccccc2c1)c1c(O)c2ccccc2oc1=O | 20 |
| O=C(O)CCCc1cc(I)c(N(CCCl)CCCl)c(I)c1 | -29 |
| CCCCCCCCCCCCCCCCP(=O)(O)OCC(N)C(=O)O (configuration not stated) | -26 |
| N#Cc1cc(N(CCCl)CCCl)c([N+](=O)[O-])cc1[N+](=O)[O-] | 4 |

----------
test-details: NCI Yeast Anticancer Drug Screen. Data for the rad52 strain (AID 147);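 further: 0% = growth of vehicle-treated control cultures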
condition: S. cerevisiae rad52 mutant growth inhibition; at 3.7 µM; hits give high values
Compounds without any hit were thinned out: in the full panel of roughly 79,000, 15% have a hit.
growth inhibition values, listed per item

| molecule | growth inhibition [%] |
| --- | --- |
| COC(COC(=O)N1CCN(C=O)CC1)C1=C(N2CC2)C(=O)C(C)=C(N2CC2)C1=O (stereo unspecified) | 18 |
| Nc1nc(N)c2c(Cl)c(CNc3ccc(C(=O)NC(CC(=O)O)C(=O)O)cc3)ccc2n1 (stereo unspecified) | 35 |
| O=C(O)C1C2CCC(C2)C1c1ccccc1 (stereo unspecified) | -3 |
| O=C1C=CC(=O)C1(Br)Br | 24 |
| O=c1oc2ccccc2c(O)c1C(c1ccc2ccccc2c1)c1c(O)c2ccccc2oc1=O | 12 |
| CC[C@](O)(C(=O)O)c1cc2n(c(=O)c1CO)Cc1cc3ccccc3nc1-2 | 94 |
| Nc1ccc(Cl)cc1C(=O)c1ccccc1 | -16 |
| CC(C)(C)c1cc([N+](=O)[O-])cc([N+](=O)[O-])c1O | -17 |
| Cc1c([N+](=O)[O-])oc2ccc3ccccc3c12 | 50 |
| N#CC(C#N)=Cc1ccc(C#N)cc1 | -4 |
| O=C(O)C1C2C=CC(C2)C1c1ccccc1 (stereo unspecified) | 0 |

----------
Entries and their measured growth inhibition follow.
test-details: NCI Yeast Anticancer Drug Screen. Data for the rad50 strain (AID 155);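 further: 0% = growth of vehicle-only cultures of the same strain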
condition: S. cerevisiae rad50 strain growth inhibition; at 1.2 µM; hits give high values
The panel holds about 79,000 compounds, 15% with a hit somewhere; the sample as a whole holds those more often.

| compound | growth inhibition / % |
| --- | --- |
| CCOC(=O)C1C2c3ccccc3C(c3ccccc32)C1C(=O)OCC (stereo unspecified) | 3 |
| CN(CCc1ccc(Br)cc1)CCN1CCCCC1 | 15 |
| CC1(Cl)CC(C)(/C=C/Cl)C(Cl)CC1Cl (stereo unspecified) | -1 |
| O=c1c2ccccc2[se]n1-c1cccnc1 | -6 |
| COC(=O)C1=C(C(=O)OC)SC2(S1)C(C(=O)OC)=C(C(=O)OC)Sc1c2ssc1=O | 46 |
| Cc1nc2ccccc2cc1C[N+]12CN3CN(CN(C3)C1)C2 | 1 |

----------
test-details: NCI Yeast Anticancer Drug Screen. Data for the wt1 strain (AID 149);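 further: 0% = growth of vehicle-treated wt1 cultures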
condition: S. cerevisiae wt1 strain (SPY 50644) growth inhibition; at 3.7 µM; hits give high values
The panel holds about 79,000 compounds, 15% with a hit somewhere; the sample as a whole holds those more often.
// growth inhibition lookup, one value per entry
property-name: growth inhibition (%)

| compound | numeric-result |
| --- | --- |
| O=C(O)C1C2C=CC(C2)C1c1ccccc1 (stereo unspecified) | -1 |
| O=[N+]([O-])c1ccc(-n2nc3ccc4c(no[n+]4[O-])c3[n+]2[O-])c([N+](=O)[O-])c1 | -2 |
| Cc1nc2ccccc2cc1C[N+]12CN3CN(CN(C3)C1)C2 | -2 |
| CCC(=O)OC1CCn2c1nc1c2C(=O)C(C)=C(N2CC2)C1=O (stereo unspecified) | -7 |
| Nc1nc(-c2ccccc2)c(-c2ccccc2)[se]1 | -1 |
| Oc1c(Br)cc(Br)cc1Br | -7 |

----------
test-details: NCI Yeast Anticancer Drug Screen. Data for the rad14 strain (AID 159);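 further: 0% = growth of vehicle-treated control cultures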
condition: S. cerevisiae rad14 strain growth inhibition; at 1.2 µM; hits give high values
Protocol: Growth inhibition of yeast strains with defined genetic alterations is measured as a screen for potential anti-cancer activity. Selected strains with alterations in DNA damage repair or cell cycle control were exposed to compounds and growth inhibition was measured relative to vehicle treated controls. The strain used in this assay is rad14
This is part of a sample that, as a whole, favours compounds with a hit. Of some 79,000 tested, about 15% had one in any assay.
Entries annotated with measured growth inhibition
property-name: growth inhibition (%)

| compound | property-name | measurement-units | numeric-result |
| --- | --- | --- | --- |
| O=P(CCCCP(=O)(c1ccccc1)c1ccccc1)(c1ccccc1)c1ccccc1.[Cl][Sn]([Cl])([c]1ccccc1)[c]1ccccc1 | growth inhibition | % | 4 |
| S=C1NC2(CCCCC2)NC12CCCCC2 | growth inhibition | % | -2 |
| O=[N+]([O-])O.[NH-]C1CCCCC1[NH-].[NH-]C1CCCCC1[NH-].[NH-]C1CCCCC1[NH-].[OH-].[OH-].[OH-].[Pt+4].[Pt+4].[Pt+4] (centres undefined) | growth inhibition | % | -5 |
| Nc1nc(N)c2c(Cl)c(CNc3ccc(C(=O)NC(CC(=O)O)C(=O)O)cc3)ccc2n1 (centres undefined) | growth inhibition | % | -8 |

----------
test-details: NCI Yeast Anticancer Drug Screen. Data for the cln2 rad14 strain (AID 165);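 further: 0% = growth equal to vehicle treated cultures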
condition: S. cerevisiae cln2 rad14 strain, at 5.0 µM (retest, dose inferred, filed as 0.5), hits give high values
Compounds without any hit were thinned out: in the full panel of roughly 79,000, 15% have a hit.
Here, each record is paired with measured growth inhibition data.
property-name: growth inhibition (%)

| molecule | numeric-result |
| --- | --- |
| O=c1c[n+](-c2ccc[nH+]c2)[nH]o1.[Cl][Hg][Cl] | 99 |
| CCOC(=O)C1CC12c1ccccc1-c1ccccc12 (stereo not drawn) | -6 |
| C[CH2][Sn]([CH2]C)([S]CCS(=O)(=O)O)[S]CCS(=O)(=O)O (tested in a mixture with another compound) | -10 |
| Cc1cc(-c2ccccc2)cc(C)[n+]1[O-] | -8 |
| S=c1[nH]c2ccccc2s1 | -12 |
| C[CH2][Sn]([Cl])([CH2]C)[O][Sn]([Cl])([CH2]C)[CH2]C | -3 |
| CC(=O)OC1C(O)C(C)OC(OC2C(OC(=O)C3CCC4C(C3)OC3(CC(OC(=O)/C=C/c5ccccc5)C(C)CO3)C43CO3)OC(C)C(O)C2OC(C)=O)C1O (stereo not drawn) | 24 |
| CCCCN(C)CC(C(C)=O)C(c1ccccc1)c1c(O)c2ccccc2oc1=O (stereo not drawn) | 6 |
| OC(c1ccc(Cl)cc1)C(Cl)(Cl)Cl (stereo not drawn) | 1 |
| CC(C)[O-].CC(C)[O-].[O-]c1cccc2cccnc12.[O-]c1cccc2cccnc12.[Ti+4] | 6 |
| COC1=CC(C)(C)C=C([Se][Se]C2=CC(C)(C)C=C(OC)C2=O)C1=O | 77 |
| FC(F)(F)C1(C(F)(F)F)O[Te]2(OC1(C(F)(F)F)C(F)(F)F)OC(C(F)(F)F)(C(F)(F)F)C(C(F)(F)F)(C(F)(F)F)O2 | 14 |
| CC1C2C=CC1C(c1c3ccc(=O)c(O)c-3oc3c(O)c(O)ccc13)C2C(=O)O (stereo not drawn) | -23 |
| [N-]=[N+]=NS(=O)(=O)c1cccc([N+](=O)[O-])c1 | 8 |
| CCN(CC)P1(=O)OC(c2ccccc2)=CCN1c1ccc(OC)cc1 (stereo not drawn) | -7 |
| CCC1(O)C(=O)OCc2c1cc1n(c2=O)Cc2cc3ccccc3nc2-1 (stereo not drawn) | 6 |
| O=C(OCc1ccccc1)C(C(Cl)c1ccccc1)N(Cc1ccccc1)Cc1ccccc1 (stereo not drawn) | 1 |
| COc1cccc2c1C(=O)c1c(O)c3c(c(O)c1C2=O)C[C@@](O)(C(C)=O)C[C@@H]3OC1CC(N)C(OC2CC(O)C(O)C(C)O2)C(C)O1 (stereo partly drawn) | 19 |
| Cc1c(N)nc([C@H](CC(N)=O)NC[C@H](N)C(N)=O)nc1C(=O)N[C@H](C(=O)N[C@H](C)[C@@H](O)[C@H](C)C(=O)N[C@H](C(=O)NCCc1nc(-c2nc(C(=O)NCCC[S+](C)C)cs2)cs1)[C@@H](C)O)C(OC1OC(CO)C(O)C(O)C1OC1OC(CO)C(O)C(OC(N)=O)C1O)c1cnc[nH]1 (stereo partly drawn) | 96 |
| CC[N-]c1nnnn1CC.[Au+].c1ccc([PH+](c2ccccc2)c2ccccc2)cc1 | 97 |
| CS/C([S-])=N/N=C(C)C.CS/C([S-])=N/N=C(C)C.[Ni+2] | 11 |
| CCCCCCCCCCCCN1CC1 | -23 |
| CCOC(=O)C(NC(=O)C(Cc1ccc(N(CCCl)CCCl)cc1)NC(C)=O)C(C)C (stereo not drawn) | -1 |
| O=C(Nc1ccccc1)c1cc([N+](=O)[O-])ccc1O | -2 |
| COc1ccc(C(Cc2ccc(Cl)c(Cl)c2)NCCO)cc1 (stereo not drawn) | -2 |
| CC(=O)OC1CCC2(C)C3=C(CCC2C1(C)C)C1(C)CCC(C(C)CCC2NC2(C)C)C1(C)CC3 (stereo not drawn) | 2 |
| CC12CCC3C(CCC4CC(N5CCCCC5)=CCC43C)C1CCC2O (stereo not drawn) | 5 |
| c1ccc([CH2][Pb]([c]2ccccc2)([c]2ccccc2)[c]2ccccc2)cc1 | 95 |
| [Cl][Hg][Cl].c1ccc(CSc2ccccc2)cc1 | 99 |
| CCc1cc2c(cc1O)C(C)(C)CCC2(C)C | 5 |
| CCN(CC)C1CC(O[C@H]2C[C@](O)(C(=O)CO)Cc3c(O)c4c(c(O)c32)C(=O)c2c(OC)cccc2C4=O)OC(C)C1O (stereo partly drawn) | 97 |
| CC(C)=CC1CC(C)C2(CCC3(C)CC4C(C(=O)CC4(C)O)/C(C=O)=C\CC32)O1 (stereo not drawn) | 99 |
| c1ccc2c3ccn4cc5c(cc4c-3nc2c1)CCCC5 | 6 |
| CC(C)CCC[C@@H](C)[C@H]1CC[C@H]2[C@@H]3CC[C@H]4C[C@H](NCCCl)CC[C@]4(C)[C@H]3CC[C@]12C | 28 |
| [Pt].c1ccc(P(CCP(c2ccccc2)c2ccccc2)CCP(c2ccccc2)c2ccccc2)cc1 | 43 |
| Nc1ccc(N=Nc2ccccc2)cc1 | 5 |
| CCC[CH2][Sn]1([CH2]CCC)[O]C(c2ccccn2)S(=O)(=O)[O]1 (stereo not drawn) | 5 |
| [CH3][Sn]([Br])([Br])[CH2]CCCBr | 7 |
